Reported values: IC50 for Human PDE10 (Homo sapiens, UniProt Q9Y233), one per item.

Example cases with answers are listed next.
>>> print(df.to_string())
                                   molecule       result
0  Cc1cnc(C)c(-c2cnn(C)c2C(=O)NC2CCn3nc(-c4ccccc4)nc3C2)n1 (stereo not shown) [Example 5.14]  5 to 100 nM
1  Cc1nc(-c2cnn(C)c2C(=O)NC2CCn3nc(-c4ccccc4)nc3C2)c(C(C)O)s1 (stereo not shown) [Example 5.31]  5 to 100 nM
2  Cn1ncc(-c2ccc(F)cn2)c1C(=O)NC1CCn2nc(-c3ccccc3)nc2C1 (stereo not shown) [Example 5.24]  5 to 100 nM

Hey, quick one: what's IC50 for each of these?
1. COc1cc(-c2cnn(C)c2C(=O)Nc2cc3nc(-c4ccccc4)nn3cc2F)nc(OC)n1 [Example 3.40]
2. Cn1ncc(-c2nc(C(F)F)cs2)c1C(=O)NC1CCn2nc(-c3ccccc3F)nc2C1 (stereo not shown) [Example 5.32]
3. Cc1cc(-c2cnn(C)c2C(=O)Nc2cc3nc(-c4ccccc4)nn3cc2F)nc(C)n1 [Example 3.30]
4. Cc1nc(-c2cnn(C)c2C(=O)NC2CCn3cc(-c4ccccc4)nc3C2)sc1C (stereo not shown) [Example 2.2]

A)
1. < 5 nM
2. 5 to 100 nM
3. < 5 nM
4. < 5 nM
